Taken from patent US20100169988A1.

For each entry below, report its iTRAQ ratio value.
Study target: APP-TAP-AICD (human, UniProt P05067 18-695)
Test protocol: streptavidin purification of APP-TAP-AICD from brain homogenate; iTRAQ 116/114, transgenic mouse 75 vs control mouse 72; MALDI-TOF/TOF;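 further: relative protein abundance in the transgenic versus control pull-down, limited to proteins with high quality scores and above-average enrichment, without full normalization across the whole measurement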

In the examples that follow, each entry is paired with its recorded iTRAQ ratio.
Binder	iTRAQ ratio
Triosephosphate isomerase (TIM) (Triose-phosphate isomerase) (enzyme, mouse, UniProt P17751 2-249, looked up) APTRKFFVGGNWKMNGRKKCLGELICTLNAANVPAGTEVVCAPPTAYIDFARQKLDPKIAVAAQNCYKVTNGAFTGEISPGMIKDLGATWVVLGHSERRHVFGESDELIGQKVSHALAEGLGVIACIGEKLDEREAGITEKVVFEQTKVIADNVKDWSKVVLAYEPVWAIGTGKTATPQQAQEVHEKLRGWLKSNVNDGVAQSTRIIYGGSVTGATCKELASQPDVDGFLVGGASLKPEFVDIINAKQ	4.61
14-3-3 protein epsilon (14-3-3E) (other, mouse, UniProt P62259 1-255, looked up) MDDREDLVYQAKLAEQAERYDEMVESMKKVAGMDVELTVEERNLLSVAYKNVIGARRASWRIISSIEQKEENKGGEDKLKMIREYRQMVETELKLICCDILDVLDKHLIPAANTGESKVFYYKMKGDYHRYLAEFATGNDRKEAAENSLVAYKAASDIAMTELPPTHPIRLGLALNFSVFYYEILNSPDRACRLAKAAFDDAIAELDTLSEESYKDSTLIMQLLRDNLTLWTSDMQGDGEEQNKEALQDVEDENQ	3.94
Fructose-bisphosphate aldolase A (Muscle-type aldolase) (Aldolase 1) (enzyme, mouse, UniProt P05064 2-364, looked up) PHPYPALTPEQKKELSDIAHRIVAPGKGILAADESTGSIAKRLQSIGTENTEENRRFYRQLLLTADDRVNPCIGGVILFHETLYQKADDGRPFPQVIKSKGGVVGIKVDKGVVPLAGTNGETTTQGLDGLSERCAQYKKDGADFAKWRCVLKIGEHTPSALAIMENANVLARYASICQQNGIVPIVEPEILPDGDHDLKRCQYVTEKVLAAVYKALSDHHVYLEGTLLKPNMVTPGHACTQKFSNEEIAMATVTALRRTVPPAVTGVTFLSGGQSEEEASINLNAINKCPLLKPWALTFSYGRALQASALKAWGGKKENLKAAQEEYIKRALANSLACQGKYTPSGQSGAAASESLFISNHAY	4.61

Next binder, please.
Specify reported iTRAQ ratio for the binder shown: Glutamine synthetase (Glutamate-ammonia ligase) (enzyme, mouse, UniProt P15105 2-373, looked up) ATSASSHLNKGIKQMYMSLPQGEKVQAMYIWVDGTGEGLRCKTRTLDCEPKCVEELPEWNFDGSSTFQSEGSNSDMYLHPVAMFRDPFRKDPNKLVLCEVFKYNRKPAETNLRHICKRIMDMVSNQHPWFGMEQEYTLMGTDGHPFGWPSNGFPGPQGPYYCGVGADKAYGRDIVEAHYRACLYAGVKITGTNAEVMPAQWEFQIGPCEGIRMGDHLWIARFILHRVCEDFGVIATFDPKPIPGNWNGAGCHTNFSTKAMREENGLKCIEEAIDKLSKRHQYHIRAYDPKGGLDNARRLTGFHETSNINDFSAGVANRGASIRIPRTVGQEKKGYFEDRRPSANCDPYAVTEAIVRTCLLNETGDEPFQYKN
3.76
